The reported numbers originate from patent US11597727B2.

- Tested on: integrin α2β1 (Homo sapiens, UniProt P05556+P17301)
- Sequence (P17301 30-1181): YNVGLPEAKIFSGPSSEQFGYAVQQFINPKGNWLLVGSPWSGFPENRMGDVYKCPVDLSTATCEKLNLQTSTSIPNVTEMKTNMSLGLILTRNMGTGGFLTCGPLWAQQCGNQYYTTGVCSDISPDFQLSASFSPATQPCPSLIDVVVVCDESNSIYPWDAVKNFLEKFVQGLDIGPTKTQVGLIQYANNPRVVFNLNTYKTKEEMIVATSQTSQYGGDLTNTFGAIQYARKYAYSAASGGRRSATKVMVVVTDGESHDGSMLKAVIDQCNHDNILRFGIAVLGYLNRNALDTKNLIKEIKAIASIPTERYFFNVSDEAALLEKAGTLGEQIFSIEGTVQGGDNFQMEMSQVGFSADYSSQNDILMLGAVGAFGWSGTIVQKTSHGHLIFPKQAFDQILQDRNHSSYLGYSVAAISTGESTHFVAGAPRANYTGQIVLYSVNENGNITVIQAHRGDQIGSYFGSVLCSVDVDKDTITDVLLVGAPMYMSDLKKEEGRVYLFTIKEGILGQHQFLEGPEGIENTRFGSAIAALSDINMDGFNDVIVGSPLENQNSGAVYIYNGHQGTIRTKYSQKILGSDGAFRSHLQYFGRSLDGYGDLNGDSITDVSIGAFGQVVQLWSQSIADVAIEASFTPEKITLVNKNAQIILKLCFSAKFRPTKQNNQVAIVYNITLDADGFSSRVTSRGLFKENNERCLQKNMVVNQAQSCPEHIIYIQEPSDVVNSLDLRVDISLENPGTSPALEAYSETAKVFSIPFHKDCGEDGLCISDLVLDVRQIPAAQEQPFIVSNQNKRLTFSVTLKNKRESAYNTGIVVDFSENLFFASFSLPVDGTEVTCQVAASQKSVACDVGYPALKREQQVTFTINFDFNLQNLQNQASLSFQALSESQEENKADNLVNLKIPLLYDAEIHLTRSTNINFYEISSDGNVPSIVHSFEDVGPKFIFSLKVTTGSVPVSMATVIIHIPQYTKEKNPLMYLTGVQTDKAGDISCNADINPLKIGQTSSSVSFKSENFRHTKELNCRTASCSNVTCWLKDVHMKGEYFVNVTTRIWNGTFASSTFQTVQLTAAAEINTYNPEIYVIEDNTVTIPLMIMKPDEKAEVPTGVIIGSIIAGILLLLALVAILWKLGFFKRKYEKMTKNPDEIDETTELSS
- Sequence (P05556 21-798): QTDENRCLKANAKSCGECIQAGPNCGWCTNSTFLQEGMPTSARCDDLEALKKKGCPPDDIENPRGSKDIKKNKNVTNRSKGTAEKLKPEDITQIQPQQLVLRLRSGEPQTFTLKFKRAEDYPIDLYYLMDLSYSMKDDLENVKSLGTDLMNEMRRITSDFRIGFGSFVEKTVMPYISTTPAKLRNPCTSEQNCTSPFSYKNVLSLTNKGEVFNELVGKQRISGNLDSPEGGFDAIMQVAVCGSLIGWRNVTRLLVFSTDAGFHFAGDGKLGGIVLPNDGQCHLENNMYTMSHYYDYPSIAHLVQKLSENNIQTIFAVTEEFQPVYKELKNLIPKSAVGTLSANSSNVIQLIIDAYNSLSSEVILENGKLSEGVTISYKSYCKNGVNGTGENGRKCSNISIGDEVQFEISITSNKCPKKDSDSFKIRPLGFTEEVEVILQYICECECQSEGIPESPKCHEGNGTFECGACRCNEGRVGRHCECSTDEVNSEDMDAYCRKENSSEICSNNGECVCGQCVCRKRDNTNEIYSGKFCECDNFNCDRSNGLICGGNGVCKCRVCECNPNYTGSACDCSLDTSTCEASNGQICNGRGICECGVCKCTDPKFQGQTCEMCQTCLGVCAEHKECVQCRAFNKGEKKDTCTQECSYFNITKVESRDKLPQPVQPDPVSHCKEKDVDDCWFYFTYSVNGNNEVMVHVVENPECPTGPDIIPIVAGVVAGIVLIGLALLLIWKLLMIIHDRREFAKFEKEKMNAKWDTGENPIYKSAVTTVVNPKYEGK
- Assay explanation: HT 1080 cell adhesion assay on rat tail collagen I
- Reported conditions: HT1080 (human fibrosarcoma) cells on rat tail collagen I, absorbance at 595 nm, triplicate; read-out: IC50s from HT 1080 Cell adhesion assay
Property label: IC50

INSERT INTO assay_data (molecule, tested_on, property_label, measured_result) VALUES
  ('O=C(NC[C@H](NC(=O)c1c(Cl)cccc1Cl)C(=O)O)NC1Cc2ccccc2C1', 'integrin α2β1 (Homo sapiens, UniProt P05556+P17301)', 'IC50', '10 to 100 µM'),
  ('CC1(C)C2CCC(CNC(=O)NC[C@H](NC(=O)c3c(Cl)cccc3Cl)C(=O)O)C1C2 (some centres unmarked)', 'integrin α2β1 (Homo sapiens, UniProt P05556+P17301)', 'IC50', '10 to 100 µM'),
  ('O=C(NCc1ccc(Cl)cc1)NC[C@H](NC(=O)c1c(Cl)cccc1Cl)C(=O)O', 'integrin α2β1 (Homo sapiens, UniProt P05556+P17301)', 'IC50', '> 100 µM'),
  ('O=C(CC1CCCCC1)N[C@@H](CNC(=O)NCc1ccccc1)C(=O)O', 'integrin α2β1 (Homo sapiens, UniProt P05556+P17301)', 'IC50', '> 100 µM'),
  ('O=C(N[C@@H](CNC(=S)NCc1ccccc1)C(=O)O)c1c(Cl)cccc1Cl', 'integrin α2β1 (Homo sapiens, UniProt P05556+P17301)', 'IC50', '10 to 100 µM');

Q. Write down the reported IC50 of CC(NC(=O)NCC(NC(=O)c1c(Cl)cccc1Cl)C(=O)O)C1CC2CCC1C2 (centres unmarked) , test system: integrin α2β1 (Homo sapiens, UniProt P05556+P17301).
A. 10 to 100 µM

Q. Write down the reported IC50 of O=C(NC[C@H](NC(=O)c1c(Cl)cccc1Cl)C(=O)O)NC12CCC3CC(CC(C3)C1)C2 , test system: integrin α2β1 (Homo sapiens, UniProt P05556+P17301).
A. 10 to 100 µM

Q. Write down the reported IC50 of O=C(NC[C@H](NC(=O)c1c(Cl)cccc1Cl)C(=O)O)NC1CCc2ccccc2C1 (some centres unmarked) , test system: integrin α2β1 (Homo sapiens, UniProt P05556+P17301).
A. < 10 µM

====

Listed here are compounds together with their documented IC50.
- Tested on: integrin α2β1 (Homo sapiens, UniProt P05556+P17301)
- Assay explanation: HT 1080 cell adhesion assay on rat tail collagen I
- Reported conditions: HT1080 (human fibrosarcoma) cells on rat tail collagen I, absorbance at 595 nm, triplicate; read-out: IC50s from HT 1080 Cell adhesion assay

INSERT INTO assay_data (compound, tested_on, measured_result) VALUES
  ('CCC12CC3CC(C1)CC(NC(=O)NC[C@H](NC(=O)c1c(Cl)cccc1Cl)C(=O)O)(C3)C2', 'integrin α2β1 (Homo sapiens, UniProt P05556+P17301)', '10 to 100 µM');

Q. Given CCCNC(=O)NC[C@H](NC(=O)c1c(Cl)cccc1Cl)C(=O)O , state its recorded IC50.
A. > 100 µM

Q. Given O=C(N[C@@H](CNc1nccc(-c2ccccc2)n1)C(=O)O)c1c(Cl)cccc1Cl , state its recorded IC50.
A. > 100 µM

Q. Given O=C(NCc1ccccc1)NC[C@H](NC(=O)c1c(C(F)(F)F)cccc1C(F)(F)F)C(=O)O , state its recorded IC50.
A. 10 to 100 µM

====

Listed here are molecules together with their documented IC50.
- Tested on: integrin α2β1 (Homo sapiens, UniProt P05556+P17301)
- Assay explanation: HT 1080 cell adhesion assay on rat tail collagen I
- Format: cell-based
- Set-up: HT1080 (human fibrosarcoma) cells (or human airway smooth muscle cells) were detached and resuspended in serum-free DMEM; endogenous in cells; host or cells: HT1080 human fibrosarcoma cells
- Reported conditions: HT1080 (human fibrosarcoma) cells on rat tail collagen I, absorbance at 595 nm, triplicate; read-out: IC50s from HT 1080 Cell adhesion assay

Example molecules with recorded IC50:
INSERT INTO measurements (molecule, property_label, measured_result) VALUES
  ('O=C(NCC1CC2CCC1CC2)NC[C@H](NC(=O)c1c(Cl)cccc1Cl)C(=O)O (some centres unmarked)', 'IC50', '10 to 100 µM'),
  ('O=C(NCCC1C2CC3CC(C2)CC1C3)NC[C@H](NC(=O)c1c(Cl)cccc1Cl)C(=O)O (some centres unmarked)', 'IC50', '10 to 100 µM'),
  ('Cc1cc(C)c(C(=O)N[C@@H](CNC(=O)NCc2ccccc2)C(=O)O)c(C)c1', 'IC50', '10 to 100 µM'),
  ('Cc1ccccc1CNC(=O)NC[C@H](NC(=O)c1c(Cl)cccc1Cl)C(=O)O', 'IC50', '10 to 100 µM'),
  ('CCN(CC)C(=O)NC[C@H](NC(=O)c1c(Cl)cccc1Cl)C(=O)O', 'IC50', '> 100 µM'),
  ('CC(CC12CC3CC(CC(C3)C1)C2)NC(=O)NC[C@H](NC(=O)c1c(Cl)cccc1Cl)C(=O)O (some centres unmarked)', 'IC50', '10 to 100 µM');

Q. Given O=C(NC[C@H](NC(=O)c1c(Cl)cccc1Cl)C(=O)O)N[C@H]1CCc2ccccc21 , state its recorded IC50.
A. 10 to 100 µM

Q. Given Cc1ccc(CNC(=O)NC[C@H](NC(=O)c2c(Cl)cccc2Cl)C(=O)O)cc1 , state its recorded IC50.
A. > 100 µM

====

Listed here are compounds together with their documented pIC50.
- Tested on: integrin α2β1 (Homo sapiens, UniProt P05556+P17301)
- Assay explanation: HT 1080 cell adhesion assay on rat tail collagen I
- Reported conditions: HT1080 (human fibrosarcoma) cells on rat tail collagen I, absorbance at 595 nm, triplicate; read-out: IC50s from HT 1080 Cell adhesion assay
- Protocol: Cell adhesion Assay: Ninety-six-well flat-bottomed tissue culture plates were coated with rat tail collagen I for 1 hour at 37° C. After incubation, wells were blocked with 1% BSA at 37° C. for 1 hour. Control wells were filled with 1% BSA. […] The relative number of cells in each well was evaluated after solubilization in 40 μl of 2% Triton X-100 by measuring absorbance at 595 nm in a microplate reader. […]
pIC50: −log10 of the molar value.

Example compounds with recorded pIC50:
INSERT INTO assay_data (compound, tested_on, property_label, measured_result) VALUES
  ('O=C(NCc1ccsc1)NC[C@H](NC(=O)c1c(Cl)cccc1Cl)C(=O)O [KZ-1-38]', 'integrin α2β1 (Homo sapiens, UniProt P05556+P17301)', 'pIC50', '4.00 to 5.00'),
  ('O=C(NC[C@H](NC(=O)c1c(Cl)cccc1Cl)C(=O)O)Nc1ccccc1 [KZ-1-25]', 'integrin α2β1 (Homo sapiens, UniProt P05556+P17301)', 'pIC50', '< 4.00'),
  ('C[C@@H]1[C@H]2C[C@@H](C[C@H]1NC(=O)NC[C@H](NC(=O)c1c(Cl)cccc1Cl)C(=O)O)C2(C)C [A2-170]', 'integrin α2β1 (Homo sapiens, UniProt P05556+P17301)', 'pIC50', '4.00 to 5.00'),
  ('O=C(NC[C@H](NC(=O)c1c(Cl)cccc1Cl)C(=O)O)NC(c1ccccc1)c1ccccc1 [A2-127]', 'integrin α2β1 (Homo sapiens, UniProt P05556+P17301)', 'pIC50', '4.00 to 5.00'),
  ('O=C(NCC1CCCCC1)NC[C@H](NC(=O)c1c(Cl)cccc1Cl)C(=O)O [KZ-1-22]', 'integrin α2β1 (Homo sapiens, UniProt P05556+P17301)', 'pIC50', '< 4.00');

Q. Given Cc1cccc(Cl)c1C(=O)N[C@@H](CNC(=O)NCc1ccccc1)C(=O)O [A2-35] , state its recorded pIC50.
A. 4.00 to 5.00

Q. Given CC(C)CC(=O)N[C@@H](CNC(=O)NCc1ccccc1)C(=O)O [A2-37] , state its recorded pIC50.
A. < 4.00

Q. Given O=C(NC[C@H](NC(=O)c1c(Cl)cccc1Cl)C(=O)O)N[C@H]1CCCc2ccccc21 [A2-125] , state its recorded pIC50.
A. > 5.00

Q. Given O=C(NCc1ccc(Br)cc1)NC[C@H](NC(=O)c1c(Cl)cccc1Cl)C(=O)O [KZ-1-23] , state its recorded pIC50.
A. 4.00 to 5.00

====

- Tested on: integrin α2β1 (Homo sapiens, UniProt P05556+P17301)
- Assay explanation: HT 1080 cell adhesion assay on rat tail collagen I
- Reported conditions: HT1080 (human fibrosarcoma) cells on rat tail collagen I, absorbance at 595 nm, triplicate; read-out: IC50s from HT 1080 Cell adhesion assay
Property label: IC50

Example compounds with recorded IC50:
INSERT INTO measurements (compound, measured_result) VALUES
  ('O=C(NC[C@H](NC(=O)c1c(Cl)cccc1Cl)C(=O)O)NCC12CC3CC(CC(O)(C3)C1)C2 [A2-153]', '10 to 100 µM'),
  ('CC12CC3CC(C)(C1)CC(NC(=O)NC[C@H](NC(=O)c1c(Cl)cccc1Cl)C(=O)O)(C3)C2 [A2-128]', '10 to 100 µM');

Q. Given O=C(NC[C@H](NC(=O)c1c(Cl)cccc1Cl)C(=O)O)NCC12CC3CC(CC(Cl)(C3)C1)C2 [A2-156] , state its recorded IC50.
A. 10 to 100 µM

Q. Given O=C(NCC1CCc2ccccc21)NC[C@H](NC(=O)c1c(Cl)cccc1Cl)C(=O)O (stereo partly drawn) [A2-123] , state its recorded IC50.
A. < 10 µM

Q. Given O=C(NCc1ccccc1)NC[C@H](NC(=O)C1CCCCC1)C(=O)O [A2-63] , state its recorded IC50.
A. > 100 µM

Q. Given O=C(NC[C@H](NC(=O)c1c(Cl)cccc1Cl)C(=O)O)NCC12CC3CC(CC(C3)C1)C2 [A2-83] , state its recorded IC50.
A. 10 to 100 µM

Q. Given O=C(NCc1ccc(C(F)(F)F)cc1)NC[C@H](NC(=O)c1c(Cl)cccc1Cl)C(=O)O [KZ-1-30] , state its recorded IC50.
A. > 100 µM

Q. Given O=C(NC[C@H](NC(=O)c1c(Cl)cccc1Cl)C(=O)O)NC1CCC2(CCCCC2)CC1 [A2-179] , state its recorded IC50.
A. 10 to 100 µM

Q. Given O=C(NCc1cc(F)cc(F)c1)NC[C@H](NC(=O)c1c(Cl)cccc1Cl)C(=O)O [KZ-1-32] , state its recorded IC50.
A. > 100 µM

Q. Given O=C(NCc1ccccc1Cl)NC[C@H](NC(=O)c1c(Cl)cccc1Cl)C(=O)O [KZ-1-18] , state its recorded IC50.
A. 10 to 100 µM

Q. Given O=C(NC[C@H](NC(=O)c1c(Cl)cccc1Cl)C(=O)O)NC12CC3CC(CC(O)(C3)C1)C2 [A2-144] , state its recorded IC50.
A. 10 to 100 µM
